Measured IC50 values are reported for all entries that follow.
# MEASUREMENT TARGET: JAK2 (Homo sapiens, UniProt O60674)
# Sequence (O60674 whole entry): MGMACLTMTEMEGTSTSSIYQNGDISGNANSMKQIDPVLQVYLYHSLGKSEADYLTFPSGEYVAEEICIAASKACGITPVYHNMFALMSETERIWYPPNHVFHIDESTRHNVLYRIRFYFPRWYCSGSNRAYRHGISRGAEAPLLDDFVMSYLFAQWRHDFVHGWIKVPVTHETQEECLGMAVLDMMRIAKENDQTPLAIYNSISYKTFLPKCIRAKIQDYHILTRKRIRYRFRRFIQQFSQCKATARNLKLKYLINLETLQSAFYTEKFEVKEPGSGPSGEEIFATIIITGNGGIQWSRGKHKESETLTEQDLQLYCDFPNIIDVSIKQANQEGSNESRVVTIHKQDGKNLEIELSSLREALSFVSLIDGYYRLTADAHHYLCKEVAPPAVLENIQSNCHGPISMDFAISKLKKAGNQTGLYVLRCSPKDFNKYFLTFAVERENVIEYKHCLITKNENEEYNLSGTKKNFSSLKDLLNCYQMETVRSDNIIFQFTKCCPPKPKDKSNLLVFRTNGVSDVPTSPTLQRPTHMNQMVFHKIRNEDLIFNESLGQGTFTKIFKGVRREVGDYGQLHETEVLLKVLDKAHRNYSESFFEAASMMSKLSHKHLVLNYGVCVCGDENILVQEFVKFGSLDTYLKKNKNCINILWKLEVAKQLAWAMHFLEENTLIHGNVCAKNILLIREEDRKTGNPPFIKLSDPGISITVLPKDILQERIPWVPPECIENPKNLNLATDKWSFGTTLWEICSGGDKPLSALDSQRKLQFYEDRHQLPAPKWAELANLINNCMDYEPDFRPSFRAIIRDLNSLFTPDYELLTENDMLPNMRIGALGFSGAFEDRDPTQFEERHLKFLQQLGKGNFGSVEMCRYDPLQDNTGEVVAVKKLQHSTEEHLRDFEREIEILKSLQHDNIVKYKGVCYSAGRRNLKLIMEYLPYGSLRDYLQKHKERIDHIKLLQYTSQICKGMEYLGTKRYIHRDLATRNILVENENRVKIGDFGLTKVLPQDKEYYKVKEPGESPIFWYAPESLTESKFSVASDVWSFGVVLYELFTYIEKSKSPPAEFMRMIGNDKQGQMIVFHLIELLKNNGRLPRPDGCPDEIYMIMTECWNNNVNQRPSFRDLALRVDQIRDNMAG
# RUN DESCRIPTION: JAK2 enzymatic kinase inhibition assay
# Format: biochemical
# APPLIED CONDITIONS: read-out: Kinase inhibitory activities given in IC50 (nM), JAK2
Record the value in nM, omitting the unit from your answer.

C=CC(=O)N1CCC23CCN(c4ncnc5[nH]ccc45)C2CCC13 (centres unmarked) [KMC423] | 53

// next entry
Qu. Which IC50 is listed for N#CCC(=O)N1CCC23CCN(c4ncnc5[nH]ccc45)C2CCC13 (centres unmarked) [KMC420] ?
Ans. 13
